biological target: T1, human IL-6 (human, UniProt P05231 30-212); assay: SPR Biacore, supernatant Ab on Protein A chip, 37 C
T1 construct: IL-6 flowed over captured antibodies
T1 sequence (P05231 30-212 limits assumed): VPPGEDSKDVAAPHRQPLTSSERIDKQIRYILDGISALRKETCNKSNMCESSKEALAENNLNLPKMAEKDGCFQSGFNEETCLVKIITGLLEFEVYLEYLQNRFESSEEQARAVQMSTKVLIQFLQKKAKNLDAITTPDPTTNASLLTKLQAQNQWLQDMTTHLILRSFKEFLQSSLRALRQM
Each entry below carries its reported kon.
The figure you give is taken to be in M⁻¹ s⁻¹; do not add the unit.

INSERT INTO assay_data (binder, measuredendpoint, displayunit, assayvalue) VALUES
  ('anti-IL-6 antibody, heavy chain T63G, G66D / light chain M32L, M50D, N52S, M88Q (antibody, IgG1, V domains shown, Full IgG1 (Expi293); VL = variant III) VH: EVQLVESGGGLVQPGGSLRLSCAASGFTFSPFAMSWVRQAPGKGLEWVAKISPGGSWTYYSDGVTDRFTFSLDTSKSTAYLQMNSLRAEDTAVYYCARQLWGYYALDIWGQGTLVTVSS VL: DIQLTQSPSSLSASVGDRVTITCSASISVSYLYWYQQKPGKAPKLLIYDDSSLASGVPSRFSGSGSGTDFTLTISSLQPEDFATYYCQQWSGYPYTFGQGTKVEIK', 'kon', 'M⁻¹ s⁻¹', '1.73e+06'),
  ('anti-IL-6 antibody, heavy chain T63Q, G66D / light chain M32L, M50D, N52S, M88Q (antibody, IgG1, V domains shown, Full IgG1 (Expi293); VL = variant III) VH: EVQLVESGGGLVQPGGSLRLSCAASGFTFSPFAMSWVRQAPGKGLEWVAKISPGGSWTYYSDQVTDRFTFSLDTSKSTAYLQMNSLRAEDTAVYYCARQLWGYYALDIWGQGTLVTVSS VL: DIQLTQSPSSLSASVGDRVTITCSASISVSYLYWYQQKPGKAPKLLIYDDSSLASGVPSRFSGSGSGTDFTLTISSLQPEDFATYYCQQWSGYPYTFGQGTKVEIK', 'kon', 'M⁻¹ s⁻¹', '1.78e+06'),
  ('anti-IL-6 antibody, heavy chain S35I, G66D / light chain M32L, M50D, N52S, M88Q (antibody, IgG1, V domains shown, Full IgG1 (Expi293); VL = variant III) VH: EVQLVESGGGLVQPGGSLRLSCAASGFTFSPFAMIWVRQAPGKGLEWVAKISPGGSWTYYSDTVTDRFTFSLDTSKSTAYLQMNSLRAEDTAVYYCARQLWGYYALDIWGQGTLVTVSS VL: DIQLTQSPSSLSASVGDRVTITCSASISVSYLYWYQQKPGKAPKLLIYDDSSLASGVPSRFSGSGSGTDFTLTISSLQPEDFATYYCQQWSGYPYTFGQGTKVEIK', 'kon', 'M⁻¹ s⁻¹', 904000);

GET /values?readout=kon&item= anti-IL-6 antibody, heavy chain T63P, G66D / light chain M32L, M50D, N52S, M88Q (antibody, IgG1, V domains shown, Full IgG1 (Expi293); VL = variant III) VH: EVQLVESGGGLVQPGGSLRLSCAASGFTFSPFAMSWVRQAPGKGLEWVAKISPGGSWTYYSDPVTDRFTFSLDTSKSTAYLQMNSLRAEDTAVYYCARQLWGYYALDIWGQGTLVTVSS VL: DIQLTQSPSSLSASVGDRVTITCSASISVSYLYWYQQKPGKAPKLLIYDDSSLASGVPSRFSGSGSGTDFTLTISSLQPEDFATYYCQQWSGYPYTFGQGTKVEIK
1.7e+06

Consider the binder anti-IL-6 antibody, heavy chain I51K, G66D / light chain M32L, M50D, N52S, M88Q (antibody, IgG1, V domains shown, Full IgG1 (Expi293); VL = variant III) VH: EVQLVESGGGLVQPGGSLRLSCAASGFTFSPFAMSWVRQAPGKGLEWVAKKSPGGSWTYYSDTVTDRFTFSLDTSKSTAYLQMNSLRAEDTAVYYCARQLWGYYALDIWGQGTLVTVSS VL: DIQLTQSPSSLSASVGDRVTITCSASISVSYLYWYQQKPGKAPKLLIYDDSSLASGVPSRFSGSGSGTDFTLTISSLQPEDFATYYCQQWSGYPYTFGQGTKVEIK and give its measured kon.
1.72e+06

Would you mind telling me what kon value was observed for anti-IL-6 antibody, heavy chain T63V, G66D / light chain M32L, M50D, N52S, M88Q (antibody, IgG1, V domains shown, Full IgG1 (Expi293); VL = variant III) VH: EVQLVESGGGLVQPGGSLRLSCAASGFTFSPFAMSWVRQAPGKGLEWVAKISPGGSWTYYSDVVTDRFTFSLDTSKSTAYLQMNSLRAEDTAVYYCARQLWGYYALDIWGQGTLVTVSS VL: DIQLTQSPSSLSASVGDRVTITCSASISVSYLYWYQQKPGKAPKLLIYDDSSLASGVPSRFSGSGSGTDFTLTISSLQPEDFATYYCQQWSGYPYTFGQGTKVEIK ?
1.57e+06

Would you kindly share the measured kon for anti-IL-6 antibody, heavy chain T63H, G66D / light chain M32L, M50D, N52S, M88Q (antibody, IgG1, V domains shown, Full IgG1 (Expi293); VL = variant III) VH: EVQLVESGGGLVQPGGSLRLSCAASGFTFSPFAMSWVRQAPGKGLEWVAKISPGGSWTYYSDHVTDRFTFSLDTSKSTAYLQMNSLRAEDTAVYYCARQLWGYYALDIWGQGTLVTVSS VL: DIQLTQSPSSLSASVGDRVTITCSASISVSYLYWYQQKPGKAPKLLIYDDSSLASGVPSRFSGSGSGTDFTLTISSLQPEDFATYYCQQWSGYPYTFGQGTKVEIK ?
1.72e+06

Entry anti-IL-6 antibody, heavy chain S35A, G66D / light chain M32L, M50D, N52S, M88Q (antibody, IgG1, V domains shown, Full IgG1 (Expi293); VL = variant III) VH: EVQLVESGGGLVQPGGSLRLSCAASGFTFSPFAMAWVRQAPGKGLEWVAKISPGGSWTYYSDTVTDRFTFSLDTSKSTAYLQMNSLRAEDTAVYYCARQLWGYYALDIWGQGTLVTVSS VL: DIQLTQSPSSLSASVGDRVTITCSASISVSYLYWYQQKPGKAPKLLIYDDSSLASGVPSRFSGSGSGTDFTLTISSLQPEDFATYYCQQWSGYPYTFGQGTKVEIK : reported kon = ?
1.93e+06

I am curious: what kon value has been reported for anti-IL-6 antibody, heavy chain I51Q, G66D / light chain M32L, M50D, N52S, M88Q (antibody, IgG1, V domains shown, Full IgG1 (Expi293); VL = variant III) VH: EVQLVESGGGLVQPGGSLRLSCAASGFTFSPFAMSWVRQAPGKGLEWVAKQSPGGSWTYYSDTVTDRFTFSLDTSKSTAYLQMNSLRAEDTAVYYCARQLWGYYALDIWGQGTLVTVSS VL: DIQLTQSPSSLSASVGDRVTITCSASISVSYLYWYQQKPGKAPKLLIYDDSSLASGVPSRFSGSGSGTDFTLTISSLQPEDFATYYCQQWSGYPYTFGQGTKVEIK ?
1.96e+06

Fill in the blank: the reported kon of anti-IL-6 antibody, heavy chain T63A, G66D / light chain M32L, M50D, N52S, M88Q (antibody, IgG1, V domains shown, Full IgG1 (Expi293); VL = variant III) VH: EVQLVESGGGLVQPGGSLRLSCAASGFTFSPFAMSWVRQAPGKGLEWVAKISPGGSWTYYSDAVTDRFTFSLDTSKSTAYLQMNSLRAEDTAVYYCARQLWGYYALDIWGQGTLVTVSS VL: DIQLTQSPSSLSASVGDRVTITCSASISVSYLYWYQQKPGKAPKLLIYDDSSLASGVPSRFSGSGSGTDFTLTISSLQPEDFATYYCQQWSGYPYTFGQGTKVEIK is ____.
1.7e+06
